Known IC50 of a selection of molecules
# Study Target: KRAS G13D (Homo sapiens (Human), UniProt P01116+P62937, G13D)
# Sequence (P01116-2 other isoform, or with tags, fused parts or gaps G13D): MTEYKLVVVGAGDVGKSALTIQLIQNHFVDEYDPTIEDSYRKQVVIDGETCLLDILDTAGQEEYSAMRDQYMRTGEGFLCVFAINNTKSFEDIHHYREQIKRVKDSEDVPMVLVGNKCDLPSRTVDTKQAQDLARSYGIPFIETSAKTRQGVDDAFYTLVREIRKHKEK
# Sequence (P62937 whole entry): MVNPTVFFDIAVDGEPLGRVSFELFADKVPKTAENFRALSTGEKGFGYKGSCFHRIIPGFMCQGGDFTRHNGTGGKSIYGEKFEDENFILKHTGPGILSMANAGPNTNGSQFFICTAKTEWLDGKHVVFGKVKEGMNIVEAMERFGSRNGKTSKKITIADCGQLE
# Assay Protocol: Ras-Raf (BRAF RBD) disruption / FRET / MOA assay, KRAS G13D
# Format: biochemical
# Assay Setup: read-out: IC50* KRAS G13D FRET data

CCn1c(-c2cccnc2COC)c2c3cc(ccc31)-c1cc(O)cc(c1)C[C@H](NC(=O)[C@H](C(C)C)N(C)C(=O)[C@H]1CCN(C(=O)C#CCN3CCN(C)CC3)C1)C(=O)N1CCC[C@H](N1)C(=O)OCC(C)(C)C2 [Example A189]: 0.1 to 1 µM

Shift focus to the following entry.
Query string: Which IC50 is listed for CCn1c(-c2cccnc2[C@H](C)OC)c2c3cc(ccc31)-c1cc(O)cc(c1)C[C@H](NC(=O)[C@H](C(C)C)N(C)C(=O)[C@H]1CCN(C(=O)/C=C/C(F)(F)F)C1)C(=O)N1CCC[C@H](N1)C(=O)OCC(C)(C)C2 [Example A527] ?
Result string: 0.01 to 0.1 µM

====

# System: NCI-H358 cells (K-Ras G12C)
# Assay Protocol: Potency assay: pERK in NCI-H358 cells
# Assay type: cell-based, human
# Assay Setup: Homo sapiens, NCI-H358; H358 KRAS G12C; read-out: pERK EC50
Parameter Measured: EC50

Solved entries (count: 3):
C=CC(=O)N1CCN(C(=O)N(C)[C@H](C(=O)N[C@H]2Cc3nc(cs3)-c3ccc4c(c3)c(c(-c3cccnc3[C@H](C)OC)n4CC)CC(C)(C)COC(=O)[C@@H]3CCCN(N3)C2=O)C(C)C)C[C@@H]1C (atropisomer, axis not shown) [Example A433]: < 5 µM
C=CC(=O)N1CC[C@@]2(CCN2C(=O)N(C)[C@H](C(=O)N[C@H]2Cc3nc(cs3)-c3ccc4c(c3)c(c(-c3cccnc3[C@H](C)OC)n4CC)CC(C)(C)COC(=O)[C@@H]3CCCN(N3)C2=O)C(C)C)C1 (atropisomer, axis not shown) [Example A661]: < 5 µM
C=CC(=O)NC[C@@H]1CCN1C(=O)N(C)[C@H](C(=O)N[C@H]1Cc2nc(cs2)-c2ccc3c(c2)c(c(-c2cccnc2[C@H](C)OC)n3CC)CC(C)(C)COC(=O)[C@@H]2CCCN(N2)C1=O)C(C)C (atropisomer, axis not shown) [Example A422]: < 5 µM

Turning to the following compound.
Query string: What value of EC50 has been reported for the following compound? C=CC(=O)N1CC[C@H](C(=O)N(C)[C@H](C(=O)N[C@H]2Cc3cc(cc(C(F)F)c3)-c3ccc4c(c3)c(c(-c3cccnc3[C@H](C)OC)n4CC(F)(F)F)CC(C)(C)COC(=O)[C@@H]3CCCN(N3)C2=O)C(C)C)C1 (atropisomer, axis not shown) [Example A372]
Result string: < 5 µM

====

# Study Target: NRAS Q61K (Homo sapiens (Human), UniProt P01111+P62937, Q61K)
# Sequence (P01111 whole entry Q61K): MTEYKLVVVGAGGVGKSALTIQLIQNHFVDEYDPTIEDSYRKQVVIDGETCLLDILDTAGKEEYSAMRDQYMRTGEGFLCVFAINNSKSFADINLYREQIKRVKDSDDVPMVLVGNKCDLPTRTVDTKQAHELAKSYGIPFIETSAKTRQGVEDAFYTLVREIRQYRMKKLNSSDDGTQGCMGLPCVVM
# Sequence (P62937 whole entry): as the sequence (P62937 whole entry) above
# Assay Protocol: Ras-Raf (BRAF RBD) disruption / FRET / MOA assay, NRAS Q61K
# Format: biochemical
# Assay Setup: NRAS Q61K; Ras-Raf disruption/FRET/MOA assay; read-out: IC50* NRAS Q61K FRET data
# Experimental: The purpose of this biochemical assay is to measure the ability of test compounds to facilitate ternary complex formation between a nucleotide-loaded Ras isoform and cyclophilin A; the resulting ternary complex disrupts binding to a BRAF^RBD construct, inhibiting Ras signaling through a RAF effector. […]. Compound is present in plate wells as a 10-point 3-fold dilution series starting at a final concentration of 30 μM. […]
// reported IC50 for each item listed

Study these solved cases before continuing.
C=CC(=O)N1CC[C@H](C(=O)N(C)[C@H](C(=O)N[C@H]2Cc3cc(O)cc(c3)-c3ccc4nc(-c5cccnc5COC)c(n4c3)CC(C)(C)COC(=O)[C@@H]3CCCN(N3)C2=O)C(C)C)C1: > 10000 nM
CCn1c(-c2cccnc2[C@H](C)OC)c2c3cc(ccc31)-c1csc(n1)C[C@H](NC(=O)CN1CC[C@@]3(CCN(C(=O)C#CC(C)(C)N4CCC4)C3)C1)C(=O)N1CCC[C@H](N1)C(=O)OCC(C)(C)C2 (atropisomer, axis not shown): 1000 to 10000 nM
CCn1c(-c2cccnc2[C@H](C)OC)c2c3cc(ccc31)-c1cccc(c1)C[C@H](NC(=O)[C@@H](CO[C@H]1CCN(C(=O)C#CC(C)(C)N(C)C)C1)C(C)C)C(=O)N1CCC[C@H](N1)C(=O)OCC(C)(C)C2 (atropisomer, axis not shown): > 10000 nM
C=CC(=O)N1CC[C@H](C(=O)N(C)[C@H](C(=O)N[C@H]2Cc3cc(O)cc(c3)-c3ccc4c(c3)c(c(-c3cccnc3[C@H](CC)OC)n4CC)CC(C)(C)COC(=O)[C@@H]3CCCN(N3)C2=O)C(C)C)C1 (atropisomer, axis not shown): 100 to 1000 nM

Query string: Endpoint output: IC50 of "C=CC(=O)N1CC[C@H](C(=O)N(C)[C@H](C(=O)N[C@H]2Cc3cc(O)cc(c3)-c3ccc4c(c3)c(c(-c3cccnc3)n4C(C)(C)C#N)CC(C)(C)COC(=O)[C@@H]3CCCN(N3)C2=O)C(C)C)C1" . Value?
Result string: 100 to 1000 nM

Query string: Request: C=C(C)C(=O)N1CC(N(C)C(=O)N(C)[C@H](C(=O)N[C@H]2Cc3nc(cs3)-c3ccc4c(c3)c(c(-c3cccnc3[C@H](C)OC)n4CC)CC(C)(C)COC(=O)[C@@H]3CCCN(N3)C2=O)C(C)C)C1 (atropisomer, axis not shown)
Result string: 100 to 1000 nM

Query string: // same read-out, input: CCn1c(-c2cccnc2[C@H](C)OC)c2c3cc(ccc31)N1CCO[C@@H](C[C@H](NC(=O)[C@@H](COC3CCN(C(=O)C#CC(C)(C)N(C)C)CC3)C(C)C)C(=O)N3CCC[C@H](N3)C(=O)OCC(C)(C)C2)C1 (atropisomer, axis not shown)
Result string: > 10000 nM

Query string: Similarly, "C=CC(=O)N1CC[C@H](C(=O)N(C)[C@H](C(=O)N[C@H]2Cc3cc(O)cc(c3)-c3ccc4c(c3)c(c(-c3cc(C#N)cnc3COC)n4CC)CC(C)(C)COC(=O)[C@@H]3CCCN(N3)C2=O)C(C)C)C1" ?
Result string: 100 to 1000 nM
